Parameter Relative Potency: see the listing below.
Molecular target: VLA-4 (Homo sapiens, UniProt P05556+P13612)
Sequence (P13612 34-1032): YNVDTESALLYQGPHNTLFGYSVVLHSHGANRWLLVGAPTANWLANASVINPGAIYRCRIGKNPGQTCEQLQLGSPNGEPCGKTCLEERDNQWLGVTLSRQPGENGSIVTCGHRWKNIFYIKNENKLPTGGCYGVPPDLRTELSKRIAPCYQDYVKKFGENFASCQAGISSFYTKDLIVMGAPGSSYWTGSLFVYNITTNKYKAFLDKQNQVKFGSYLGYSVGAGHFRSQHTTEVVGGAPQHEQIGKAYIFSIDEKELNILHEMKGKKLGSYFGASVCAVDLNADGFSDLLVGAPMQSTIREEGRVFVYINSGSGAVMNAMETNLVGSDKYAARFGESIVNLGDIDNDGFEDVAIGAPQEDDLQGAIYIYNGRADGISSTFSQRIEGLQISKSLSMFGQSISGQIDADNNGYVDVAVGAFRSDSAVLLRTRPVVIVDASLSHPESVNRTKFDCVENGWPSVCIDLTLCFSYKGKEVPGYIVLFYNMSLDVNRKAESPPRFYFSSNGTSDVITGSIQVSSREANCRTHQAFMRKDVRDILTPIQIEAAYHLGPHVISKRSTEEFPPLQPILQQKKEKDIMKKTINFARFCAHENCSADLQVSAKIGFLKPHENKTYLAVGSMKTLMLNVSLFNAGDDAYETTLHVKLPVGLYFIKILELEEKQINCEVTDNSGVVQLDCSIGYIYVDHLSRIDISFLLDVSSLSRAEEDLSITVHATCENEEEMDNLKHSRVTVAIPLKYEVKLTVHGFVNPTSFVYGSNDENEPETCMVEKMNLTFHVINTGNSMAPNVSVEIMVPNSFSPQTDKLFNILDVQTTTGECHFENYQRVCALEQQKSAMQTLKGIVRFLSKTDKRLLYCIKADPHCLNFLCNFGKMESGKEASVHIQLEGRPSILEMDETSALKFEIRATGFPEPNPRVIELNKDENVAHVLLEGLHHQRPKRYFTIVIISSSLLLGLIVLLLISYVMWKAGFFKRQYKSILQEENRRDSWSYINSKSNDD
Sequence (P05556 21-798): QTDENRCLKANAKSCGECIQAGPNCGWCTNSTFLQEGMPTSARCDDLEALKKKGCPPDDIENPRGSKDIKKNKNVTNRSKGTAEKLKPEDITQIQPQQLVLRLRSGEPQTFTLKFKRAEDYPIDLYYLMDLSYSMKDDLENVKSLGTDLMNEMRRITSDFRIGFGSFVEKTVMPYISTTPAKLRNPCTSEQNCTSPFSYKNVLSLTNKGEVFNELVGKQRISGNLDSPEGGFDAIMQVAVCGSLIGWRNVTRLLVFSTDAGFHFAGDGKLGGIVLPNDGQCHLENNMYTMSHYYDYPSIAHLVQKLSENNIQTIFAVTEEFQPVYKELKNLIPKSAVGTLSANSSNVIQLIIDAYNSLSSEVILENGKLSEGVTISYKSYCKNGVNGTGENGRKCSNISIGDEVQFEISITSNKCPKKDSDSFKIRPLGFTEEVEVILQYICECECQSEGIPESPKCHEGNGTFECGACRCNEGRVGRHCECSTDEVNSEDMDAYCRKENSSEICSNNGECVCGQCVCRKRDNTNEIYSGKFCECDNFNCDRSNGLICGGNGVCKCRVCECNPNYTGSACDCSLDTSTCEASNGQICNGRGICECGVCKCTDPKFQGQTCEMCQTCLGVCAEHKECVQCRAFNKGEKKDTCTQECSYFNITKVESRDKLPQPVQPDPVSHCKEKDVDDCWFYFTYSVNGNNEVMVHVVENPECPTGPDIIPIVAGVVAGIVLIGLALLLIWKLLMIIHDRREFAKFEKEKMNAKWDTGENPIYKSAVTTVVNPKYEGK
Assay: In vitro binding inhibition of 51Cr-labeled Jurkat cells to solid phase-bound CS-1 compound (SEQ ID NO:1)
Assay type: cell-based
Design: inflammatory cells that contain the VLA-4 receptor [Jurkat cells; host or cells: Jurkat (human T lymphoblastic line)
Procedure: Binding inhibition is measured here as a concentration of compound that inhibits one-half the binding between a standard number of Jurkat cells and a standard amount of CS-1 compound bound to the surface of a microtiter plate well. Those concentrations are conveniently expressed as IC50 values, smaller numbers indicating a lower concentration required to inhibit 50 percent binding and therefore greater potency. Further specifics of this assay are provided hereinafter. […]
Square brackets hold non-standard residues; d marks the D form. Peptide text beside a SMILES is read from it. * marks the point of attachment. Nva = CCC[C@H](N)C(=O)O; Cbz = O=C(OCc1ccccc1)*

CCC[C@H](NC(=O)[C@H](CC(=O)O)NC(=O)[C@H](CC(C)C)NC(=O)[C@@H](N)[C@@H](C)CC)C(=O)N1CCC[C@H]1C(N)=O [926.16] (H-ILD[Nva]P-NH2) ... .34
CC(C)COC(=O)N[C@@H](CC(=O)O)C(=O)N[C@@H](Cc1ccccc1)C(=O)N1CCCCC1 ... 0
CC(C)C[C@@H]1NC(=O)N([C@@H](CC(=O)O)C(=O)N[C@@H](Cc2ccccc2)C(=O)N2CCCCC2)C1=O ... 12.5
CC(C)C[C@H](N)C(=O)N[C@@H](CC(=O)O)C(=O)N[C@@H](Cc1ccccc1)C(N)=O [926.31] (H-Leu-Asp-Phe-NH2) ... 0.01
CC(C)C[C@@H](C(=O)N[C@@H](CC(=O)O)C(=O)N[C@@H](Cc1ccccc1)C(=O)N1CCCCC1)N1C(=O)N[C@@H](c2ccccc2)C1=O ... 3.13

Relative Potency for Cc1ccc(C(=O)N[C@@H](CC(C)C)C(=O)N[C@@H](CC(=O)O)C(=O)N[C@H](C(=O)N2CCC[C@@H]2C(N)=O)C(C)C)cc1C ? 5.01

Relative Potency for CC(C)C[C@H](NC(=O)OCc1ccccc1)C(=O)N[C@@H](CC(=O)O)C(=O)N[C@@H](Cc1ccccc1)C(=O)N1CCC[C@@H]1C(N)=O [1056.01] (Cbz-LDF[dP]-NH2) ? 34.4

----------
Biological target: VLA-4 (Homo sapiens, UniProt P05556+P13612)
Assay: In vitro binding inhibition of 51Cr-labeled Jurkat cells to solid phase-bound CS-1 compound (SEQ ID NO:1)
Assay type: cell-based
Design: inflammatory cells that contain the VLA-4 receptor [Jurkat cells; host or cells: Jurkat (human T lymphoblastic line)
Conditions: binding inhibition potency relative to standard compound of SEQ ID NO:3 = 1 (normalized IC50); about one-tenth or less assigned zero
Protocol: Binding inhibition is measured here as a concentration of compound that inhibits one-half the binding between a standard number of Jurkat cells and a standard amount of CS-1 compound bound to the surface of a microtiter plate well. Those concentrations are conveniently expressed as IC50 values, smaller numbers indicating a lower concentration required to inhibit 50 percent binding and therefore greater potency. Further specifics of this assay are provided hereinafter. […]
Square brackets hold non-standard residues; d marks the D form. Peptide text beside a SMILES is read from it. * marks the point of attachment. Morpholide = C1CN(*)CCO1; PhAc = O=C(Cc1ccccc1)*; Inp = O=C(O)C1CCNCC1; NHBn = c1ccc(CN*)cc1
Binary call on Relative Potency: 1 from 40 upward, -1 beneath that.

CC(C)C[C@H](NC(=O)Cc1ccccc1)C(=O)N[C@@H](CC(=O)O)C(=O)N[C@@H](Cc1ccccc1)C(=O)NN1CCOCC1 ... 1

Can CC(C)C[C@H](NC(=O)Cc1ccccc1)C(=O)N[C@@H](CC(=O)O)C(=O)N[C@@H](CC(C)C)C(=O)N1CCOCC1 [997.20] (PhAc-Leu-Asp-Leu-Morpholide) be said to have Relative Potency at or above 40? 1

Can CC(C)C[C@H](NC(=O)Cc1ccccc1)C(=O)N[C@@H](CC(=O)O)C(=O)NCc1ccccc1 [997.02] (PhAc-Leu-Asp-NHBn) be said to have Relative Potency at or above 40? -1

Can CC(C)C[C@H](NC(=O)Cc1ccccc1)C(=O)N[C@@H](CC(=O)O)C(=O)N[C@@H](Cc1ccccc1)C(=O)N1CCC(C(N)=O)CC1 [1111.05] (PhAc-LDF[Inp]-NH2) be said to have Relative Potency at or above 40? 1

Can CC(C)C[C@H](NC(=O)Cc1ccccc1)C(=O)N[C@@H](CC(=O)O)C(=O)NC1Cc2ccccc2N(CC(C)C)C1=O (stereo partly drawn) be said to have Relative Potency at or above 40? -1

----------
Parameter Relative Potency: see the listing below.
target: VLA-4 (Homo sapiens, UniProt P05556+P13612); test: In vitro binding inhibition of 51Cr-labeled Jurkat cells to solid phase-bound CS-1 compound (SEQ ID NO:1); assay type: cell-based; set-up: inflammatory cells that contain the VLA-4 receptor [Jurkat cells; host or cells: Jurkat (human T lymphoblastic line); settings: binding inhibition potency relative to standard compound of SEQ ID NO:3 = 1 (normalized IC50); about one-tenth or less assigned zero
Square brackets hold non-standard residues; d marks the D form. Peptide text beside a SMILES is read from it. * marks the point of attachment. PhAc = O=C(Cc1ccccc1)*
# answer = number (no unit)

CC(C)C[C@H](NC(=O)Cc1ccccc1)C(=O)N[C@@H](CC(=O)O)C(=O)NNC(=O)OC(C)(C)C [997.13] ... 1.57
CC(C)C[C@H](NC(=O)Cc1ccccc1)C(=O)N[C@@H](CC(=O)O)C(=O)N[C@@H]1CCCCNC1=O [1043.01] ... 17.2
CC(C)C[C@H](NC(=O)Cc1ccccc1)C(=O)N[C@@H](CC(=O)O)C(=O)NC1CCCCN(CC(N)=O)C1=O (stereo partly shown) [1057.06] ... 97

Please look at the following molecule next.
Query the reported Relative Potency for VLA-4 (Homo sapiens, UniProt P05556+P13612); item: NC(=O)[C@H]1CCCN1C(=O)[C@H](Cc1ccccc1)NC(=O)[C@H](CC(=O)O)NC(=O)[C@H](CS)NC(=O)Cc1ccccc1 [1042.22] (PhAc-CDF[dP]-NH2) 46.9

----------
Parameter Relative Potency: see the listing below.
target: VLA-4 (Homo sapiens, UniProt P05556+P13612); assay: In vitro binding inhibition of 51Cr-labeled Jurkat cells to solid phase-bound CS-1 compound (SEQ ID NO:1); assay type: cell-based; parameters: inflammatory cells that contain the VLA-4 receptor [Jurkat cells; host or cells: Jurkat (human T lymphoblastic line); conditions: binding inhibition potency relative to standard compound of SEQ ID NO:3 = 1 (normalized IC50); about one-tenth or less assigned zero
Square brackets hold non-standard residues; d marks the D form. Peptide text beside a SMILES is read from it. * marks the point of attachment. NMeD = CN[C@@H](CC(=O)O)C(=O)O; PhAc = O=C(Cc1ccccc1)*
# answer = number (no unit)

Check out these entries, answers already filled in.
CC(C)C[C@H](NC(=O)Cc1ccccc1)C(=O)N(C)[C@@H](CC(=O)O)C(=O)N[C@@H](Cc1ccccc1)C(=O)N1CCC[C@@H]1C(N)=O [1190.06] (PhAc-L[NMeD]F[dP]-NH2) ... 0
CC(C)C[C@H](NC(=O)c1ccccc1)C(=O)N[C@@H](CC(=O)O)C(=O)N[C@H](C(=O)N1CCC[C@@H]1C(N)=O)C(C)C ... 9.6
CC(C)C[C@H](NC(=O)Cc1ccccc1)C(=O)N[C@@H](CC(=O)O)C(=O)N[C@@H](Cc1c[nH]c2ccccc12)C(=O)N1CCC[C@@H]1C(N)=O [896.60] (PhAc-LDW[dP]-NH2) ... 131
CC(C)C[C@H](NC(=O)c1cccc2ccccc12)C(=O)N[C@@H](CC(=O)O)C(=O)N[C@H](C(=O)N1CCC[C@@H]1C(N)=O)C(C)C ... 4.38
NC(=O)[C@H]1CCCN1C(=O)[C@H](Cc1ccccc1)NC(=O)[C@H](CC(=O)O)NC(=O)CCCCC1CCSS1 (stereo partly drawn) ... 1.1

Please look at the following compound next.
Relative Potency for CC(C)C[C@H](NC(=O)Cc1ccccc1)C(=O)N[C@@H](CC(=O)O)C(=O)NN1Cc2ccccc2NC1=O ? 1.35

----------
Parameter Relative Potency: see the listing below.
target: VLA-4 (Homo sapiens, UniProt P05556+P13612); test: In vitro binding inhibition of 51Cr-labeled Jurkat cells to solid phase-bound CS-1 compound (SEQ ID NO:1); format: cell-based; design: inflammatory cells that contain the VLA-4 receptor [Jurkat cells; host or cells: Jurkat (human T lymphoblastic line)
Square brackets hold non-standard residues; d marks the D form. Peptide text beside a SMILES is read from it.

Check out these entries, answers already filled in.
CC(C)C[C@H](NC(=O)[C@H](N)Cc1ccccc1)C(=O)N[C@@H](CC(=O)O)C(=O)N[C@H](C(=O)N1CCC[C@@H]1C(N)=O)C(C)C [926.05] (H-[dF]LDV[dP]-NH2) ... .94
CC(=O)N[C@@H](CC(C)C)C(=O)N[C@@H](CC(=O)O)C(=O)N[C@@H](Cc1ccccc1)C(N)=O [926.32] (Ac-Leu-Asp-Phe-NH2) ... .47

Please look at the following molecule next.
Relative Potency for CC[C@H](C)[C@H](N)C(=O)N[C@@H](CC(C)C)C(=O)N[C@@H](CC(=O)O)C(=O)N[C@@H](CCSC)C(=O)N1CCC[C@H]1C(N)=O [926.13] (H-ILDMP-NH2) ? .3
